- Test system: influenza neuraminidase (NA), inactivated viral suspensions of influenza A/Udorn/72 (H3N2)
- Type: biochemical
Counter-ions that a name gives are not always drawn.
# binarize NA activity inhibition at 50 μM (%): threshold 70% inclusive, high side yes (1), low side no (0)

Previously resolved entries follow.
| MOLECULE | LABEL |
| --- | --- |
| CO[C@H]1C[C@H](O[C@H]2CC[C@]3(C)[C@H]4CC[C@]5(C)[C@@H](C6=CC(=O)OC6)CC[C@]5(O)[C@@H]4CC[C@]3(O)C2)O[C@H](C)[C@H]1O [Periplocymarin] | yes (1) |
| COC(=O)C(N)CS (stereo not shown) [Mecysteine hydrochloride] | no (0) |
| O=C(O)C1=CC(=C(c2ccc(O)c(C(=O)O)c2)c2ccc(O)c(C(=O)O)c2)C=CC1=O [ATA, aurintricarboxylic acid] | yes (1) |
| C1CNCCN1 [Piperazine] | yes (1) |
| O=C(O)c1cc(O)c2c(c1)[C@H]([C@H]1c3cc(C(=O)O)cc(O)c3C(=O)c3c(O[C@@H]4O[C@H](CO)[C@@H](O)[C@H](O)[C@H]4O)cccc31)c1cccc(O[C@@H]3O[C@H](CO)[C@@H](O)[C@H](O)[C@H]3O)c1C2=O [Sennoside A] | no (0) |

Okay, now this molecule:
In: Textbook exercise: given the entry COc1ccc(-c2cc(=O)c3c(O)cc(O)cc3o2)cc1O [Diosmetin] , state whether its NA activity inhibition at 50 μM (%) is greater than or equal to 70%.
Out: no (0)
